Field: in vitro activity (%, relative to SEQ ID NO: 1); cAMP assay, from EC50. Provide a value for each of the binders that follow.
target: human glucagon receptor (human, UniProt P47871 26-477); experiment: cell-based or functional assay
Sequence (P47871 26-477): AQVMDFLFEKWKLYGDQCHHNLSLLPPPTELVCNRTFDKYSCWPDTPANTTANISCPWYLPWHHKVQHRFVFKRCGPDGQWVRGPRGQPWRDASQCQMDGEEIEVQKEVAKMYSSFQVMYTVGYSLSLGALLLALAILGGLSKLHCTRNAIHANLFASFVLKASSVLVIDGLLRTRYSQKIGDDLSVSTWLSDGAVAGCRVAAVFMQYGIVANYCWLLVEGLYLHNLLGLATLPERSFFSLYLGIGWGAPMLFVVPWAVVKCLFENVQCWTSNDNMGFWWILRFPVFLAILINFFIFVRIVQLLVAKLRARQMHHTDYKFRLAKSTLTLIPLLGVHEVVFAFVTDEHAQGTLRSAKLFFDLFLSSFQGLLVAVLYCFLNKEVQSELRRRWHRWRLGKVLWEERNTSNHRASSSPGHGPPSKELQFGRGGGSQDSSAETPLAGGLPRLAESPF
Positions of bridges follow the written chain, without caps; N, C: chain ends. Non-standard residues stand in square brackets, D forms with d. No end group written: not given here. Aib = CC(C)(N)C(=O)O
Write the number in % without appending the unit.

**Query** Identify measured in vitro activity (%, relative to SEQ ID NO: 1); cAMP assay, from EC50 corresponding to YXQGTFTSDYSKYLDSRRAQDFVQWLMNT (X at position 2 = aminoisobutyric acid (Aib)) [glucagon derivative of SEQ ID NO: 33]
**Result** 108

**Query** Identify measured in vitro activity (%, relative to SEQ ID NO: 1); cAMP assay, from EC50 corresponding to Y[Aib]QGTFTSDYSKYCDEKRAKEFVQWLMNT (lactam 16-20) [glucagon derivative of SEQ ID NO: 23]
**Result** 76.8

**Query** Identify measured in vitro activity (%, relative to SEQ ID NO: 1); cAMP assay, from EC50 corresponding to YXQGTFTSDYSKYLDSRRAQDFVQWLMNTC (X at position 2 = aminoisobutyric acid (Aib)) [glucagon derivative of SEQ ID NO: 44]
**Result** 75.4

**Query** Identify measured in vitro activity (%, relative to SEQ ID NO: 1); cAMP assay, from EC50 corresponding to HSQGTFTSDYSKYLDSCEAQDFVQWLMNT [glucagon derivative of SEQ ID NO: 5]
**Result** 0.3

**Query** Identify measured in vitro activity (%, relative to SEQ ID NO: 1); cAMP assay, from EC50 corresponding to SQGTFTSDYSKYLDECRAKEFVQWLMNT (lactam 15-19) [glucagon derivative of SEQ ID NO: 32]
**Result** 0.7
